# target.of.assay: WT HIV-1 RT (BH10) (Human immunodeficiency virus type 1 group M subtype B, UniProt P03366)
# Construct: His6 (C); made in house; host or cells: E. coli XL1 Blue
# procedure.details: Inhibition constants under steady-state nucleotide incorporation conditions
# Assay type: biochemical
# reported.conditions: competition with dATP, template-primer D38T/25PGA, read-out: Ki(Tenofovir-DP)
quantity.measured: Ki (µM)
Give bare numbers, in µM.

stdin: API: value(readout= Ki, system= WT HIV-1 RT (BH10) (Human immunodeficiency virus type 1 group M subtype B, UniProt P03366), query= CC(Cn1cnc2c(N)ncnc21)OCP(=O)(O)OP(=O)(O)OP(=O)(O)O (stereo in doubt) [Tenofovir-DP, tenofovir diphosphate] )
stdout: 3.59

Taken from paper PMC3468358.
